Target: T1, human LILRA5 (human, UniProt A6NI73 42-299)
T1 construct: whole, on cells; also called hLILRA5
T1 sequence (A6NI73 42-299): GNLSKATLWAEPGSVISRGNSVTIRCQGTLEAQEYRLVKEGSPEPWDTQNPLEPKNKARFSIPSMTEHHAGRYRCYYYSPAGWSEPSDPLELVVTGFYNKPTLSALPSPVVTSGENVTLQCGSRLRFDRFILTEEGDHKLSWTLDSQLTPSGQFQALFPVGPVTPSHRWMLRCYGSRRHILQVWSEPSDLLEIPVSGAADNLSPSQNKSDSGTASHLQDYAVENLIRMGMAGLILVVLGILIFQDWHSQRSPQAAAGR
Experiment: FACS, 293F-hLILRA5 cells
# MFI annotations
Dear colleague, please return just the value in MFI, with no unit written.

Previously resolved entries follow.
25-G9-G4-C12 (antibody, V domains shown, mouse monoclonal hybridoma antibody) VH: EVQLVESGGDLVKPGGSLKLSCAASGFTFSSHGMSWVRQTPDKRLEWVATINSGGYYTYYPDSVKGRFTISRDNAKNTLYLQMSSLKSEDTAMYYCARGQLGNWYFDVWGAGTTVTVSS VL: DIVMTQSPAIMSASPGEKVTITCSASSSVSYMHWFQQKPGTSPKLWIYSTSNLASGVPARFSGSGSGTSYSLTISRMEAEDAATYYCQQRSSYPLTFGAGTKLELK ... 25.3
27-D11-C2-A10 (antibody, V domains shown, mouse monoclonal hybridoma antibody) VH: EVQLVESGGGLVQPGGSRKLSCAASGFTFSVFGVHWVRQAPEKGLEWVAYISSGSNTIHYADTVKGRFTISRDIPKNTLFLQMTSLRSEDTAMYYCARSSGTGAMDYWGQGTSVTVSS VL: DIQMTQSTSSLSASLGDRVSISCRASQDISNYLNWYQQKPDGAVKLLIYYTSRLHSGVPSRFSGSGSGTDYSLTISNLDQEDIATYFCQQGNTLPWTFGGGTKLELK ... 17.2
36-F4-H1-D9 (antibody, V domains shown, mouse monoclonal hybridoma antibody) VH: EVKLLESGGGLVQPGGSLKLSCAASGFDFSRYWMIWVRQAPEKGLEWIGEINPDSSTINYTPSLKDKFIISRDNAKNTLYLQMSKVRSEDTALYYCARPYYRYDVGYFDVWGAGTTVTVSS VL: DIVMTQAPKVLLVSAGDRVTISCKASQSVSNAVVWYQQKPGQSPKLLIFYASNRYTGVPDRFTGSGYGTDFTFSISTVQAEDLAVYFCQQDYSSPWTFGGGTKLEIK ... 20.3

# ---- query binder ----
[in] Look up MFI for this binder: 26-H9-B9-B7 (antibody, V domains shown, mouse monoclonal hybridoma antibody) VH: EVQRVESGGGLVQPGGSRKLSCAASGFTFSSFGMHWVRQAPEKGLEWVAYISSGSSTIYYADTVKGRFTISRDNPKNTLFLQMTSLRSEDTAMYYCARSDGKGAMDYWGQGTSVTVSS VL: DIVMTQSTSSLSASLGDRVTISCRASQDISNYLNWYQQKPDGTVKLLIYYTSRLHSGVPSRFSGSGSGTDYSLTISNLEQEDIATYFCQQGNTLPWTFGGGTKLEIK
[out] 19.6
